// provenance: ChEMBL document CHEMBL1153091

methodNotes: Protein binding in human serum at 100 uM after 60 mins by LC/MS-MS
Assay type: ADME, cell-free
measurementContext: read-out: PB (converted)
metricName: fraction unbound at 1 h, 100 µM

[[record]]
compoundsmiles = "CN1CCc2nc(C(=O)N[C@@H]3C[C@@H](C(=O)N(C)C)CC[C@@H]3NC(=O)c3cc4cc(Cl)ccc4[nH]3)sc2C1"
metricname = "fraction unbound at 1 h, 100 µM"
numericvalue = 0.28

[[record]]
compoundsmiles = "CN1CCc2nc(C(=O)N[C@@H]3C[C@@H](C(=O)N(C)C)CC[C@@H]3NC(=O)c3cc4cc(F)ccc4[nH]3)sc2C1"
metricname = "fraction unbound at 1 h, 100 µM"
numericvalue = 0.37

